This listing pairs compounds with measured GI50.
- Test system: PC-3
- Protocol description: NCI tumour cell line growth inhibition, 48 h
Activity calls are given as the source filed them. Cut-off read from the data, not from the text of the source: active = GI50 up to about 1.1 µM and inactive = higher.

Worked set:
O=C1CC2[C@@H](N3CCCC3)CCC(N1Cc1ccccc1)C2(O)O (some centres not stated); > 100 µM (inactive)
COC(=O)C1(NC(=O)C(Cc2ccccc2)N(C(=O)OC(C)(C)C)C(=O)OC(C)(C)C)CCCC1 (configuration not stated); 31 µM (inactive)
Cc1cccc(C)c1NC(=O)/C(Cl)=C(/Cl)C(=O)O; 19.8 µM (inactive)
NNc1[nH]c(=S)[nH]c1C(N)=O; > 100 µM (inactive)
COc1ccc2[nH]c3c(C)c4c(c(C)c3c2c1)CN(C)C=C4; 11.5 µM (inactive)
O=c1c2ncn(C3CCCO3)c2n(-c2ccccc2)c(=S)n1-c1ccccc1 (configuration not stated); > 100 µM (inactive)

Now take the following compound into account.
CN(C)CC1CCCCCCCCCC(CN(C)C)C1=O (configuration not stated) yielded GI50 of 4.41 µM (inactive)

---

- Tested on: DMS-273
- Protocol description: NCI tumour cell line growth inhibition, 48 h
Calls of active or inactive are those of the source. No stated cut-off is given here; in the data, active = GI50 up to about 1.1 µM and inactive = higher.
// one of active, inactive, no free text

Solved cases below.
CN(C(=O)c1ccco1)C(=S)N1CCN(c2ccccn2)CC1; inactive
CC(=O)O[C@H]1C=CC23OC(=O)[C@]1(C)[C@H]2[C@H](C(=O)O)C12CC(=O)[C@@](CO)(CC[C@H]13)C2; inactive
O=C1CCCC/C1=C\c1ccc(Cl)c(Cl)c1; inactive
Cc1ccc(S(=O)OC2C3CC4CC(C3)CC2C4)cc1 (stereo not given); inactive
COc1cccc2c1C(=O)c1c(O)c3c(c(O)c1C2=O)C[C@@](O)(C(=O)CO)CC3OC1CC(NCCCC(OC(C)=O)OC(C)=O)C(O)C(C)O1 (stereo not given in full); active
CN1CCCS/C1=C1/SC(=S)N(c2ccccc2)C1=O; inactive

Lab log entry: Cc1ccc(C)c(NC(=O)/C(=N\NC(N)=S)C(C#N)c2ccccc2)c1 (stereo not given) — outcome as called in the assay?
inactive

Record request — test call for C=C1C=CC2(Br)OC3CC(C)(Cl)C(Br)CC13C2(C)C (stereo not given)
inactive

Check the results log: what was the call for `N=C(NC(=N)Nc1ccc(S(=O)(=O)Nc2cnc3ccccc3n2)cc1)Nc1ccc(Br)cc1` ?
inactive

// outcome(item) with item = Cc1cc2c(c3oc(C4(C)OC4C4OC4C)cc(=O)c13)C(=O)c1c(O)c(C3CC(C)(N(C)C)C(O)C(C)O3)cc(C3CC(N(C)C)C(O)C(C)O3)c1C2=O (stereo not given)
active

Status in this test for `COc1ccc(Sc2ccccc2[N+](=O)[O-])cc1` ?
inactive

Just curious, what result did `CN(C)c1ccc(C(=C(c2ccc(N(C)C)cc2)c2ccc(N(C)C)cc2)c2ccc(N(C)C)cc2)cc1` get here?
inactive

// outcome(item) with item = CCC1=CC2CN3CCc4c([nH]c5ccccc45)C(C(=O)OC)(C2)C13 (stereo not given)
inactive

I would be grateful if you could indicate the recorded call for `Oc1ccc2c(O)cc(-c3ccccc3)nc2c1` .
inactive

Test call for this compound, please: NC(CCCNc1ccc(O)cc1)C(=O)O (stereo not given)
inactive

Could you check what this test reported for C#CCNC(=O)NCCCCC(NC(=O)OCc1ccccc1)C(=O)OCc1ccccc1 (stereo not given) ?
inactive

What outcome does the record of this test show for `O=C(/C=C/c1ccc(OCCCOc2ccc(/C=C/C(=O)c3ccc(Cl)cc3)cc2)cc1)c1ccc(Cl)cc1` ?
inactive

Call for entry O=C(c1ccccc1)c1c(CC(O)c2ccncc2)n(C(=O)c2ccccc2)c2ccccc12 (stereo not given) :
inactive

Any idea what this test logged for `O=C(O)Cc1cccc2c(=O)cc(-c3ccccc3)oc12` ?
inactive

Lab log entry: `C(=N/NC1=NCCN1)/c1c2ccccc2c(/C=N\NC2=NCCN2)c2ccccc12` — outcome as called in the assay?
active
